Give TGI for every item shown.
Tested on: ACHN renal
Method Summary: NCI tumour cell line growth inhibition, 48 h

compound=S=c1[nH]n2c(COc3ccc(Cl)cc3)nnc2s1 test_system="ACHN renal" data_value="> 100 µM"
compound="COc1ccc(C[C@@H](C(=O)O[C@H](C)[C@H](NC(=O)[C@@H](CC(C)C)N(C)C(=O)C2CCCN2C(=O)[C@H](C)O)C(=O)N2CCCCNC(=O)[C@@H](C)C(=O)[C@H](C(C)C)OC(=O)C[C@H](O)[C@H]2CC(C)C)N(C)C(C)=O)cc1 (stereo not given in full)" test_system="ACHN renal" data_value="> 50 µM"
compound=CCOC(=O)C(=O)Nc1c(C)cccc1C(C)(C)C test_system="ACHN renal" data_value="> 100 µM"
compound=COC(=O)c1ccc(C(=O)OC)c2nc3cc(Cl)ccc3nc12 test_system="ACHN renal" data_value="> 100 µM"

From here, focus on the item given below.
Prompt: Complete the entry with TGI for O=[N+]([O-])C(C(Cl)=C(Cl)Cl)=C(n1nnc2ccccc21)n1nnc2ccccc21
Completion: > 65.8 µM

---

Tested on: RPMI-8226 leukemia
Method Summary: NCI tumour cell line growth inhibition, 48 h
Give TGI for every item shown.

molecule=CO[C@@H]1C[C@H]2[C@@H]3CC[C@H]([C@H](C)COC(C)=O)[C@@]3(C)CC[C@@H]2[C@@]2(C)CC[C@H]3C[C@]312 quantity=TGI data_value="> 100 µM"

// input: 2 molecules below; output: TGI for each
1. Cc1ccc(C)n2c1nc1cc3ccccc3cc12
2. CCCS(=O)c1nc(COC(=O)NC)c(COC(=O)NC)n1C (stereo unspecified)

Completion:
> 100 µM
> 100 µM

---

Give TGI for every item shown.
Tested on: MOLT-4 leukemia
Method Summary: NCI tumour cell line growth inhibition, 48 h
Give bare numbers, in µM.

Previously resolved entries follow.
compound="CN(C)CC1C(=O)O[C@H]2[C@H]1CC/C(COC(=O)NCc1ccc(Cn3c(=O)sn(CCCI)c3=O)cc1)=C\\CC[C@@]1(C)O[C@@H]21 (some centres undefined)" quantity=TGI data_value=3.43
compound=O=[N+]([O-])c1cccc(S(=O)(=O)N/N=C/c2cc(I)cc([N+](=O)[O-])c2O)c1 quantity=TGI data_value=81.5
compound=COC(=O)c1ccc(NC(=O)c2ccc(NC3=C(Cl)C(=O)N(Cc4ccccc4)C3=O)cc2)cc1 quantity=TGI data_value=25.6

From here, focus on the item given below.
Prompt: Complete the entry with TGI for COCCNCc1ccc(-c2cc3nccc(Oc4ccc(NC(=O)C5(C(=O)Nc6ccc(F)cc6)CC5)cc4F)c3s2)nc1
Completion: 4.26

---

Test system: SNB-19 CNS
Method Summary: NCI tumour cell line growth inhibition, 48 h
Give GI50 for every item shown.

Previously resolved entries follow.
molecule=c1cc(C2CCCCC2)ccc1-c1cnc2nonc2n1 test_system="SNB-19 CNS" data_value="1.46 µM"
molecule=Cc1ccc(N=Nc2c(O)ccc3n[nH]nc23)cc1 test_system="SNB-19 CNS" data_value="20.7 µM"
molecule=O=C(CSC(c1ccccc1)c1ccccc1)N/N=C/c1ccccc1Cl test_system="SNB-19 CNS" data_value="43.9 µM"

// input: 4 molecules below; output: GI50 for each
1. CCn1cc(C(=O)N/N=C/c2cccs2)c(=O)c2cc(F)c(N3CCNC(C)C3)c(F)c21 (stereo unspecified)
2. Oc1ccc(Cl)cc1Sc1cc(Cl)ccc1O
3. C(=C\c1ccncc1)/c1ccncc1
4. Cc1nc2sc(C(=O)Nc3ccccc3)c(N)c2cc1C(O)c1ccccc1 (stereo unspecified)

Completion:
1.61 µM
4.19 µM
> 100 µM
0.446 µM

// input: 3 molecules below; output: GI50 for each
1. O=C(N=Nc1c(Cl)c(O)c2ccccc2c1O)C(=O)Nc1cccc(C(F)(F)F)c1
2. CCCCSc1nc(N)c2cn[nH]c2n1
3. CC1=CC(C)(C)Nc2ccc(Cc3ccc4c(c3)C(C)=CC(C)(C)N4)cc21

Completion:
4.6 µM
37.3 µM
17.2 µM

Prompt: Complete the entry with GI50 for COC(=O)c1c2c(c(C)[n+]([O-])c1C)C(=O)C(NCc1ccc(F)cc1)=CC2=O
Completion: 2.1 µM

---

System: ACHN renal
Method Summary: NCI tumour cell line growth inhibition, 48 h
Quantity: GI50

Previously resolved entries follow.
structure_notation=CC[C@]1(O)C[C@H]2CN(CCc3c([nH]c4ccccc34)[C@@](C(=O)OC)(c3cc4c(cc3OC)N(C)[C@H]3[C@@](O)(C(=O)OC)[C@H](OC(C)=O)[C@]5(CC)C=CCN6CC[C@]43[C@@H]65)C2)C1 test_system="ACHN renal" data_value="0.0527 nM"
structure_notation=Cc1ccc(N=Nc2c(O)ccc3n[nH]nc23)cc1 test_system="ACHN renal" data_value="11500 nM"
structure_notation=O=C(CSC(c1ccccc1)c1ccccc1)N/N=C/c1ccccc1Cl test_system="ACHN renal" data_value="2180 nM"

// input: 4 compounds below; output: GI50 for each
1. CC(C)(C)C(=O)c1c(C(F)(F)F)n([O-])c2cc(Cl)c(Cl)cc2[n+]1=O
2. O=C(NCc1ccco1)C1CCN(S(=O)(=O)c2ccc(Cl)cc2)CC1
3. Cc1cc(-c2nc3n(c2/C=N/N=C(N)N)CCS3)c(C)s1
4. O=c1cc(-c2ccccc2)oc2cc(OCCCCCN3CCOCC3)cc(O)c12

Completion:
1. 389 nM
2. > 100000 nM
3. 20000 nM
4. > 100000 nM

// input: 5 compounds below; output: GI50 for each
1. C[C@H]1COCCN1c1nc(-c2cnc(N)cc2C(F)F)nc(N2CCOCC2)n1
2. Cn1cc(C2=C(c3cc[nH]c3)C(=O)NC2=O)c2ccccc21
3. c1cc(C2CCCCC2)ccc1-c1cnc2nonc2n1
4. COc1cc2c(NC3CCN(C(C)C)CC3)nc(C3CCCCC3)nc2cc1OCCCN1CCCC1
5. Cc1ccc(-c2c3c(nn2-c2ccc(S(=O)(=O)NC(=O)NC4CCCCC4)cc2)-c2ccccc2C3)cc1

Completion:
1. 207 nM
2. > 25000 nM
3. 1140 nM
4. 10400 nM
5. 14600 nM

// input: 2 compounds below; output: GI50 for each
1. O=C1C(Cl)=C(Nc2cc(Cl)ccc2O)C(=O)N1Cc1ccccc1
2. Cc1cc2c3c([n+](C)c4ccc(F)cc4c3c1)-c1cc(F)ccc1N2C

Completion:
["17200 nM", "39100 nM"]

---

System: HCC-2998 colon
Method Summary: NCI tumour cell line growth inhibition, 48 h
Give TGI for every item shown.

Previously resolved entries follow.
molecule=Cc1cc(Cl)nc(N(CCCNc2ccnc3cc(Cl)ccc23)Cc2cccs2)n1 quantity=TGI data_value="6.12 µM"
molecule=CCN(CC)S(=O)(=O)c1cccc(-c2ccc3c(NC(=O)C4CC4)n[nH]c3c2)c1 quantity=TGI data_value="> 6.25 µM"
molecule="CCn1cc(C(=O)N/N=C/c2cccs2)c(=O)c2cc(F)c(N3CCNC(C)C3)c(F)c21 (stereo not given)" quantity=TGI data_value="3.44 µM"
molecule=CC(C)=CCC/C(C)=C/Cc1c(O)c(C)cc2c1[nH]c1cc(O)ccc12 quantity=TGI data_value="> 25 µM"
molecule=COC(=O)[C@@H](NC(=O)[C@H](N)Cc1ccc(N(CCCl)CCCl)cc1)C(C)C quantity=TGI data_value="26.5 µM"

// input: 5 molecules below; output: TGI for each
1. CCCCSc1nc(N)c2cn[nH]c2n1
2. Cc1ccc2c(n1)NC(=O)C(Cc1ccccc1)(N=[N+]=[N-])C2=O (stereo not given)
3. O=C(N=Nc1c(Cl)c(O)c2ccccc2c1O)C(=O)Nc1cccc(C(F)(F)F)c1
4. CCCCCCCCCCCCCCCCCCOCC(C[N+]1(C)CCC(O)CC1)OCC (stereo not given)
5. O=NN1CCN=C1c1ccc([N+](=O)[O-])cc1

Completion:
1: 2.26 µM; 2: > 100 µM; 3: 22.9 µM; 4: 31.7 µM; 5: > 100 µM

---

Tested on: MDA-MB-231 breast
Method Summary: NCI tumour cell line growth inhibition, 48 h
Give TGI for every item shown.

Previously resolved entries follow.
molecule=CC1(C)N=C(c2ccccc2)SC12S[C@@H]1CCCC[C@H]1S2 quantity=TGI data_value="> 100 µM"
molecule=C[C@H](c1ccccc1)n1c(N)c(-c2nc3ccccc3s2)c2ccc([N+](=O)[O-])cc2c1=O quantity=TGI data_value="27.7 µM"
molecule=N#C/C(=C\c1ccc([N+](=O)[O-])o1)c1n[nH]c(Cc2ccccc2)n1 quantity=TGI data_value="5 µM"
molecule=COc1ccc(/C=C2\Sc3nnc(-c4ccccc4)n3N=C2c2cc(F)c(Cl)cc2Cl)cc1OC quantity=TGI data_value="> 100 µM"
molecule=CC(=O)c1ccc2c3c1[C@H]1O[C@H]1c1cccc(c1-3)[C@@H]1O[C@H]21 quantity=TGI data_value="4.44 µM"
molecule=COC(=O)CSc1nc2[nH]c(SC)c(C(N)=O)c2c(=O)n1-c1ccccc1 quantity=TGI data_value="> 10 µM"
molecule="C=C(C)C1CCC2=CC(CC3(C)OC3C3=CC(C(=O)OC)=C(C1)O3)OC2=O (stereo unspecified)" quantity=TGI data_value="> 100 µM"
molecule=O=c1[nH]nc(-c2ccccc2)n1-c1cccc([N+](=O)[O-])c1 quantity=TGI data_value="> 100 µM"
molecule="COC1(OC)N=C(N)C2(C#N)C(C)=C3NCN(C)N=C3C12C#N (stereo unspecified)" quantity=TGI data_value="> 100 µM"
molecule=O=C1C(Cl)=C(Cl)C(=O)N1c1ccc(F)cc1 quantity=TGI data_value="33 µM"

// input: 5 molecules below; output: TGI for each
1. Clc1cc(OCc2nn3c(Cc4ccccc4)nnc3s2)c(Cl)cc1OCc1nn2c(Cc3ccccc3)nnc2s1
2. NC(Cc1cccnn1)C(=O)O (stereo unspecified)
3. CC(NP(=O)(c1ccccc1)c1ccccc1)c1ccccc1 (stereo unspecified)
4. CO[C@@H]1C[C@H]2[C@@H]3CC[C@H]([C@H](C)COC(C)=O)[C@@]3(C)CC[C@@H]2[C@@]2(C)CC[C@H]3C[C@]312
5. OC(CN1CCCC2CCCCC21)c1cc2ccccc2c2ccccc12 (stereo unspecified)

Completion:
1: > 100 µM; 2: > 100 µM; 3: > 100 µM; 4: > 100 µM; 5: 4.06 µM

// input: 6 molecules below; output: TGI for each
1. CN(C)c1cc2c(Nc3ccc4c(cnn4Cc4ccccc4)c3)ncnc2cn1
2. Cc1nn(Cc2ccccc2)cc1C(=O)Nc1sc2c(c1C(N)=O)CCC(=O)C2
3. COc1ccc(/C=C2\COc3ccc(O)c(O)c3C2=O)cc1OC
4. Cc1ccc2c(=O)c(-c3nnc(NC4CCCCC4)s3)c[nH]c2n1
5. COc1cc(NCCC(=O)O)c2ncccc2c1
6. CCN(CC)/[N+]([O-])=N/OCOC

Completion:
1: > 25 µM; 2: 4.86 µM; 3: 5.55 µM; 4: > 100 µM; 5: > 100 µM; 6: > 100 µM
